# Tested on: lung adenocarcinoma (A549)
# protocol.notes: MTT antiproliferative assay, A549
# Assay type: cell-based, human
# condition.summary: SI = (IC50 for HLF)/(IC50 for A549)
// reported SI (selectivity index) for each item listed
measured.metric: SI (selectivity index)

{"columns": ["compound", "obs.value"],
 "data": [
  ["N.N.[Cl][Pt][Cl] [Cisplatin, reference compound]", 2.6],
  ["C#CCCC1(CCNC(=O)c2cc3cccnc3c3ncccc23)N=N1.F[P-](F)(F)(F)(F)F.F[P-](F)(F)(F)(F)F.[Ru+2].c1ccc2c(c1)[nH]c1c(-c3ncc[nH]3)nccc12.c1cnc2c(c1)ccc1cccnc12", 9.3]
]}
